Assay: changes in parasitized red cell lysis, either direction – P. falciparum Indochina, OD700, 3 h, PSAC antagonist project, primary screen (AID 1156)
Details: P. falciparum-infected erythrocytes, osmotic lysis, higher = more signal, called active from +8 up or from −8 down
Active and inactive are the calls of the source.
Let's look at some compounds and their measured z-score.

Previously resolved entries follow.
CN1C(=O)C2C=CC(C(O)c3cccc4ccccc34)N(NC(=O)OC(C)(C)C)C2C1=O (centres undefined) | 0.0094 (inactive)
CN(C)C(=O)[C@]1(Cc2ccccc2N=[N+]=[N-])N=C(c2ccc(OCCCO)cc2)O[C@@H]1c1ccccc1CN=[N+]=[N-] | 3.02 (inactive)
Cc1cc(C)c(C(O)C2C=CC3C(=O)N(c4ccccc4)C(=O)C3N2Nc2ccccc2)c(C)c1 (centres undefined) | 0.244 (inactive)

Then this compound:
Lookup: For C=CCC(OC(C)=O)[C@@H]1[C@@H](N(Cc2cccc3ccccc23)C(=O)c2ccc(C)cc2)c2cc(OCCCO)ccc2N1C(=O)c1ccc2ccccc2c1 (some centres undefined) , what is its reported z-score?
Found: -1.1 (inactive)

====

Biological target: Torsin-1A (Homo sapiens)
Experiment: TOR1A wild-type binding on microarray – cell lysate, small-molecule microarray, lysate, 635/667 nm, primary screen (AID 1149)
Conditions: COS7 hTOR1A-WT lysate, 635 nm fluorescence, higher = more signal
Okay, here is how we bin by composite z-score: L = under 0.3, M = from 0.3 up to 0.9, H = 0.9 and over

CC(C)(C)OC(=O)CC[C@@]1(C(=O)N2CCCCC2)N=C(c2ccc(OCCCO)cc2)O[C@@H]1c1ccccc1CN=[N+]=[N-] | H
C=CC[C@@]1(C(=O)NCCN2CCOCC2)N=C(c2ccc(OCCCO)cc2)O[C@@H]1c1ccccc1 | H
C=CC[C@@]1(C(=O)NCC(O)CO)N=C(c2ccc(OCCCO)cc2)O[C@@H]1c1ccccc1 (some centres undefined) | M
[N-]=[N+]=NCc1ccccc1C[C@@]1(C(=O)NCCN2CCOCC2)N=C(c2ccc(OCCCO)cc2)O[C@@H]1c1ccccc1CN=[N+]=[N-] | L
COc1ccc(C#Cc2ccc3c(c2)[C@]2(C(=O)N3)[C@H](C(=O)O)[C@H]3C(=O)O[C@H](c4ccccc4)[C@H](c4ccccc4)N3[C@@H]2c2ccc(OCCO)cc2)cc1 | L

Lookup: Which composite z-score band matches COCCOC(=O)N1C(=O)[C@@]2(c3cc(C#CC4(O)CCCCCC4)ccc31)[C@H](C(=O)N1CCc3cc(OC)c(OC)cc3C1)[C@H]1C(=O)O[C@H](c3ccccc3)[C@H](c3ccccc3)N1[C@@H]2c1ccccc1OCCO ?
Found: L

Lookup: Which composite z-score band matches CN(C)CCCCNC(=O)[C@H]1C[C@H]2C(=O)N[C@@H](CCCC[N+](C)(C)C)C(=O)N2[C@H]1c1cccc(OCCO)c1 ?
Found: H

Lookup: Which composite z-score band matches COC(=O)[C@@]1(Cc2ccc(F)cc2)[C@H]2c3cc(C(=O)N(C)C)n(Cc4ccc(C)c(F)c4F)c3C[C@H]2CN1C(=O)c1ccccc1 ?
Found: L

Lookup: Which composite z-score band matches COCCOC(=O)N1C(=O)[C@@]2(c3cc(C#CCCO)ccc31)[C@H](C(=O)N1CCc3cc(OC)c(OC)cc3C1)[C@H]1C(=O)O[C@H](c3ccccc3)[C@H](c3ccccc3)N1[C@@H]2c1ccc(OCCO)cc1 ?
Found: L

Lookup: Which composite z-score band matches NC(=O)[C@H]1[C@@H]2C(=O)O[C@@H](c3ccccc3)[C@@H](c3ccccc3)N2[C@@H](c2ccc(O)cc2)[C@]12C(=O)Nc1ccc(C#CC3(O)CCCCCC3)cc12 ?
Found: M

Lookup: Which composite z-score band matches [N-]=[N+]=NCc1ccccc1C[C@]1(C(=O)NCCN2CCOCC2)COC(c2ccc(OCCCO)cc2)=N1 ?
Found: H

Lookup: Which composite z-score band matches O=C1O[C@H](c2ccccc2)[C@H](c2ccccc2)N2[C@H]1[C@@H](C(=O)N1CCN(c3ncccn3)CC1)[C@]1(C(=O)Nc3ccc(C#CCCO)cc31)[C@H]2c1ccc(OCCO)cc1 ?
Found: H

Lookup: Which composite z-score band matches COc1ccc([Si](C)(C)[C@H]2[C@H](CC(=O)N3CCC[C@H]3CO)O[C@@]3(C(=O)N(Cc4ccc(N5C(=O)c6cccc7cccc5c67)cc4)c4ccccc43)[C@@H]2C)cc1 ?
Found: M

====

Assay: budding yeast growth modifiers under rapamycin – strain BY4716, OD600, 96 h, primary screen (AID 1091); further: test concentration not given here
Conditions: S. cerevisiae BY4716 + rapamycin, higher = more signal, called active from +8 up or from −8 down
MEASURE_NAME: z-score
Would you mind answering with just the numeric figure?

Previously resolved entries follow.
N#Cc1ccc(NN2C(C(O)c3ccco3)C=CC3C(=O)N(c4ccccc4)C(=O)C32)cc1 (stereo unspecified) | 1.7
CCOC(=O)C[C@H]1[C@H](OC(=O)c2ccccc2-c2ccccc2)[C@@H](NC(=O)c2ccccc2)c2cc(OCCCO)ccc2N1C(=O)Cc1ccc(OC)cc1 | 0.452
COCCCNC(=O)[C@@]1(Cc2ccccc2CN=[N+]=[N-])N=C(c2ccc(OCCCO)cc2)O[C@H]1c1ccccc1N=[N+]=[N-] | 2.08
CCCN1C(=O)[C@@]2(Cc3ccccc3)N=C(c3ccc(OCCCO)cc3)O[C@H]2c2ccccc21 | 1.52
[N-]=[N+]=NCc1ccccc1[C@H]1OC(c2ccc(OCCCO)cc2)=N[C@@]1(Cc1ccccc1N=[N+]=[N-])C(=O)N1CCCCC1 | 2.23
NC(=O)NCC#Cc1ccc2c(c1)[C@]1(C(=O)N2)[C@H](c2ccc(OCCO)cc2)N2[C@H](c3ccccc3)[C@H](c3ccccc3)OC(=O)[C@H]2[C@@H]1C(=O)N1CCN(c2ncccn2)CC1 | 4.43
COCCCNC(=O)[C@@]1(C)c2ccccc2C(=O)N(c2ccc(C)cn2)[C@H]1c1ccc(CO)cc1 | -1.67
COc1ccc(C(=O)Nc2ccc(CN3C(=O)[C@@]4(O[C@@H](CC(=O)N5Cc6ccccc6C[C@H]5CO)[C@H]([Si](C)(C)c5ccc(OC)cc5)[C@H]4C)c4ccccc43)cc2)cc1 | 1.87
CC(C)C(CO)N1C(=O)[C@@H]2[C@H]3C(=O)OCC=C[C@H]3OC23C=CCN(Cn2nnc4ccccc42)C(=O)[C@@H]13 (stereo partly specified) | 0.779
CCCNC(=O)[C@@]1(Sc2ccc(C)cc2)CC(=O)N(Cc2ccccc2)[C@@H]1c1ccc(CO)cc1I | 0.605

Lookup: For O=C1c2ccccc2[C@](Cc2ccccc2I)(C(=O)NC2CC2)[C@H](c2ccc(CO)cc2)N1Cc1ccccc1Cl , what is its reported z-score?
Found: 1.57

Lookup: For C[C@H]1ON(c2ccccc2)[C@@H](c2ccccc2)[C@@H]1C(=O)N1C(=O)OC[C@@H]1c1ccccc1 , what is its reported z-score?
Found: -0.299

Lookup: For COc1ccccc1CN1C(=O)c2ccccc2[C@@H](C(=O)NCC(C)C)[C@@H]1c1ccc(CO)cc1 , what is its reported z-score?
Found: 0.125

Lookup: For C=C(/C(=C/C[C@@H](OC(=O)c1ccncc1)c1cccc(OCCO)c1)c1cc(C(=O)OC)ccc1OC)C(C)C , what is its reported z-score?
Found: -0.35

Lookup: For C=CCNC(=O)[C@H]1[C@@H]2C(=O)O[C@@H](c3ccccc3)[C@@H](c3ccccc3)N2[C@@H](c2ccc(O)cc2)[C@]12C(=O)N(C(=O)OCCOC)c1ccc(C#CC3(O)CCCCCC3)cc12 , what is its reported z-score?
Found: 0.943

Lookup: For CN(C)CCCN1C(=O)[C@@]2(Cc3ccccc31)c1ccccc1C(=O)N(Cc1ccccc1)[C@H]2c1ccc(CO)cc1 , what is its reported z-score?
Found: -1.85

====

System: Noggin (protein binding on small-molecule microarray)
Assay: small molecules binding Noggin protein – biochemical, 635/667 nm fluorescence, primary screen (AID 1095);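 further: score merges 667 nm feature fluorescence with signal to noise over triplicate slides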
Details: 635 nm fluorescence, higher = more signal
MEASURE_NAME: composite z-score
Would you mind answering with just the numeric figure?

Previously resolved entries follow.
CN1C(=O)C2C=CC(C(O)C3CCCCC3)N(N(c3ccccc3)c3ccccc3)C2C1=O (centres undefined) | -0.539
C=CCNC(=O)[C@@H]1[C@H]2C(=O)O[C@H](c3ccccc3)[C@H](c3ccccc3)N2[C@H](c2ccc(O)cc2)[C@@]12C(=O)Nc1ccc(C#CCCO)cc12 | -1.2
[N-]=[N+]=NCc1ccccc1[C@H]1OC(c2ccc(OCCCO)cc2)=N[C@@]1(Cc1ccccc1N=[N+]=[N-])C(=O)NCCN1CCOCC1 | 0.476

Lookup: For CCOC(=O)C[C@H]1[C@H](OC(=O)c2ccccc2-c2ccccc2)[C@@H](NC(=O)c2ccccc2)c2cc(OCCCO)ccc2N1C(=O)Cc1ccc(OC)cc1 , what is its reported composite z-score?
Found: -0.0496
